Each entry below carries its reported Dmax.
assay.system: MerTK (Mus musculus)
Construct: endogenous in cells; host or cells: RAW264 cells
Sequence (Q60805 19-994): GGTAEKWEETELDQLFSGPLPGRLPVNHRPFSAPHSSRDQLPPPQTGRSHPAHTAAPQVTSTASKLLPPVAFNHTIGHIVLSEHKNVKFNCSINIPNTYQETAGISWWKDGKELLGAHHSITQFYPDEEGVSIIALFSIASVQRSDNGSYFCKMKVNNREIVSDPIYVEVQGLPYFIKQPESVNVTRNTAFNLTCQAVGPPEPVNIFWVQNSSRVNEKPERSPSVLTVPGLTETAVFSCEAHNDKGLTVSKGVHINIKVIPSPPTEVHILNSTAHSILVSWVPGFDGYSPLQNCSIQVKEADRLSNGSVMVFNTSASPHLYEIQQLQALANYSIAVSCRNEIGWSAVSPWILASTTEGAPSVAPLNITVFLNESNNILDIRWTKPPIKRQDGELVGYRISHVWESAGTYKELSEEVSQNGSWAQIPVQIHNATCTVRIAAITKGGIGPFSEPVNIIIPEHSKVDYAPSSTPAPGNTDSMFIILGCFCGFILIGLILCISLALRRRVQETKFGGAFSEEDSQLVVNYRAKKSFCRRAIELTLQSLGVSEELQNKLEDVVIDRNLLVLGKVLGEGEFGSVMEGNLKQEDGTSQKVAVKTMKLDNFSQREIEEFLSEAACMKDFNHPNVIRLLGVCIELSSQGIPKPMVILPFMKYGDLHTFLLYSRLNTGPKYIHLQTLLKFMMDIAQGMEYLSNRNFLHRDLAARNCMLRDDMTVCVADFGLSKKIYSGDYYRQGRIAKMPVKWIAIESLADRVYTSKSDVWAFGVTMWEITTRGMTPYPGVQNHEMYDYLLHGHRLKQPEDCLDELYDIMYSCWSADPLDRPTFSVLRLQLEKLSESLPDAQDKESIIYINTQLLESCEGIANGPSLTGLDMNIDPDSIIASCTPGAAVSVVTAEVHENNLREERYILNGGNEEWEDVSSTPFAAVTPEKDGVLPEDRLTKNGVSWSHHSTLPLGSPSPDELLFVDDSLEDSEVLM
assay.info: MerTK degradation in RAW264 cells (Western blot)
Format: cell-based
test.context: RAW264.7, 0.001-1 μM, 4 hour-incubation at 37° C., read-out: RAW264 Max % MerTK Degradation
Where a name gives a salt, the structure may show the parent alone.
reported.endpoint: Dmax

compound: CCCCNc1ncc2c(-c3ccc(CN4CCN(CCOCCOCCOCCCc5ccc6c(c5)n(C)c(=O)n6C5CCC(=O)NC5=O)CC4)cc3)cn([C@H]3CC[C@H](O)CC3)c2n1 (stereo partly shown)
observed: > 50%
//
compound: CCCCNc1ncc2c(-c3ccc(CN4CCN(CCOCCOCCOCCOCCNc5cccc6c5n(C)c(=O)n6C5CCC(=O)NC5=O)CC4)cc3)nn([C@H]3CC[C@H](O)CC3)c2n1 (stereo partly shown)
observed: > 50%
//
compound: CCCCNc1ncc(-c2ccc(CN3CCN(CCOCCOCCOCCOCCNc4cccc5c4C(=O)N(C4CCC(=O)NC4=O)C5=O)CC3)cn2)c(N[C@H]2CC[C@H](O)CC2)n1 (stereo partly shown)
observed: > 50%
//
compound: CCCCNc1ncc2c(-c3ccc(CN4CCN(CCOCCOCCOCCOCCCc5ccc6c(c5)n(C)c(=O)n6C5CCC(=O)NC5=O)CC4)cc3)nn([C@H]3CC[C@H](O)CC3)c2n1 (stereo partly shown)
observed: > 50%
//
compound: CCCCNc1ncc2c(-c3ccc(S(=O)(=O)N4CCN(CCOCCOCCOCCOCCCc5cccc6c5n(C)c(=O)n6C5CCC(=O)NC5=O)CC4)cc3)cn([C@H]3CC[C@H](O)CC3)c2n1 (stereo partly shown) [I-13, formate]
observed: > 50%
//
compound: Cc1ccc(CNc2ncc3c(-c4ccc(CN5CCN(CCOCCOCCOCCOCCNc6cccc7c6C(=O)N(C6CCC(=O)NC6=O)C7=O)CC5)cc4)cn([C@H]4CC[C@H](O)CC4)c3n2)cc1 (stereo partly shown) [I-26, formate]
observed: > 50%
//
compound: CCCCNc1ncc2c(-c3ccc(S(=O)(=O)N4CCN(CCOCCOCCOCCOCCCc5ccc6c(c5)n(C)c(=O)n6C5CCC(=O)NC5=O)CC4)cc3)cn([C@H]3CC[C@H](O)CC3)c2n1 (stereo partly shown)
observed: > 50%
//
compound: CCCCNc1ncc2c(-c3ccc(S(=O)(=O)N4CCN(C(=O)NCCCOCCCOCCCc5cccc6c5n(C)c(=O)n6C5CCC(=O)NC5=O)CC4)cc3)nn([C@H]3CC[C@H](O)CC3)c2n1 (stereo partly shown)
observed: > 50%
//
compound: COCCNc1ncc2c(-c3ccc(CN4CCN(CCOCCOCCOCCOCCNc5cccc6c5C(=O)N(C5CCC(=O)NC5=O)C6=O)CC4)cc3)cn([C@H]3CC[C@H](O)CC3)c2n1 (stereo partly shown) [I-15, diformate]
observed: 20 to 50%
//
compound: CCCCNc1ncc2c(-c3ccc(S(=O)(=O)N4CCN(C(=O)NCCOCCCOCCNc5cccc6c5C(=O)N(C5CCC(=O)NC5=O)C6=O)CC4)cc3)nn([C@H]3CC[C@H](O)CC3)c2n1 (stereo partly shown)
observed: 20 to 50%

###

assay.system: MerTK (Homo sapiens)
Construct: endogenous in cells; host or cells: Jurkat cells
Sequence (Q12866 21-999): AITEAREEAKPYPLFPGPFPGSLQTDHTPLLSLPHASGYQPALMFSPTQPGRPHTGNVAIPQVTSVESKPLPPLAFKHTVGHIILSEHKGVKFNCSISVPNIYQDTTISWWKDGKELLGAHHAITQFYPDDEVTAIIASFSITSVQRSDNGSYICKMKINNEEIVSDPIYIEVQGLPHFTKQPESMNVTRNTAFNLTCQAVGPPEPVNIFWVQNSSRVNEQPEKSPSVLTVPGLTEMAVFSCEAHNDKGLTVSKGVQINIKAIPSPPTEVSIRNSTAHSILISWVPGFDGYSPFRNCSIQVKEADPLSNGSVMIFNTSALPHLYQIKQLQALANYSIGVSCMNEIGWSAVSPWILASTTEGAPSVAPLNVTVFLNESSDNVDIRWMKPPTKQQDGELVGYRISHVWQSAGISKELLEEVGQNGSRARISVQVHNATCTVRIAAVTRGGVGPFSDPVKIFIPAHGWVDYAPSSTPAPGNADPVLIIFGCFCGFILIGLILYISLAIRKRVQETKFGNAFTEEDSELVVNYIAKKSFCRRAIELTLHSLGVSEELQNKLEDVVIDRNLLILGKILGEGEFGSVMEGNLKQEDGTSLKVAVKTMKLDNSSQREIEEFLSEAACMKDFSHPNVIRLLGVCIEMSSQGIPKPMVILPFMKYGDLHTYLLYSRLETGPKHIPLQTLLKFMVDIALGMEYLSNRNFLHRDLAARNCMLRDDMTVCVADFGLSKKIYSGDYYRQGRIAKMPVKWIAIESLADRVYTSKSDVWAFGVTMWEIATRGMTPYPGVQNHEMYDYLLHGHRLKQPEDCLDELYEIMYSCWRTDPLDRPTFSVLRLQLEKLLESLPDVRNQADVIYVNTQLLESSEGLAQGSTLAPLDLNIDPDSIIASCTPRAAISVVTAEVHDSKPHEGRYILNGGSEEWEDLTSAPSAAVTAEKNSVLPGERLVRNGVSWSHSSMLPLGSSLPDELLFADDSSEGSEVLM
assay.info: MerTk degradation in Jurkat cells (Western blot)
Type: cell-based
test.context: Jurkat, 4 h, 0.001-1 μM, 4 hour-incubation at 37° C., read-out: Jurkat Max % MerTK Degradation

molecule: CCCCNc1ncc2c(-c3ccc(C(C)N4CCN(CCOCCOCCOCCOCCCc5ccc6c(c5)n(C)c(=O)n6C5CCC(=O)NC5=O)CC4)cc3)cn([C@H]3CC[C@H](O)CC3)c2n1 (stereo partly shown)
assay.system: MerTK (Homo sapiens)
Dmax: > 50%

molecule: CCCCNc1ncc2c(-c3ccc(S(=O)(=O)N4CCN(CCOCCOCCOCCOCCCc5ccc6c(c5)n(C)c(=O)n6C5CCC(=O)NC5=O)CC4)cc3)cn([C@H]3CC[C@H](O)CC3)c2n1 (stereo partly shown)
assay.system: MerTK (Homo sapiens)
Dmax: > 50%

molecule: Cn1c(=O)n([C@H]2CCC(=O)NC2=O)c2ccc(CCCOCCCOCCN3CCN(Cc4ccc(-c5cn([C@H]6CC[C@H](O)CC6)c6nc(NCC7CC7)ncc56)cc4)CC3)cc21
assay.system: MerTK (Homo sapiens)
Dmax: > 50%

molecule: Cn1c(=O)n([C@H]2CCC(=O)NC2=O)c2ccc(CCCOCCOCCOCCN3CCN(Cc4ccc(-c5cn([C@H]6CC[C@H](O)CC6)c6nc(NCCC(F)(F)F)ncc56)cc4)CC3)cc21
assay.system: MerTK (Homo sapiens)
Dmax: > 50%

molecule: CCCCNc1ncc2c(-c3ccc(C(C)N4CCN(CCCOCCCc5ccc6c(c5)n(C)c(=O)n6C5CCC(=O)NC5=O)CC4)cc3)cn([C@H]3CC[C@H](O)CC3)c2n1 (stereo partly shown)
assay.system: MerTK (Homo sapiens)
Dmax: > 50%

molecule: CCC1CN(c2ccc(-c3ccnc(Nc4cc(OC)c(OC)c(OCCOCCOCCOCCOCCNc5cccc6c5C(=O)N(C5CCC(=O)NC5=O)C6=O)c4)n3)cn2)CCN1 (stereo not shown)
assay.system: MerTK (Homo sapiens)
Dmax: < 20%

molecule: Cn1c(=O)n([C@H]2CCC(=O)NC2=O)c2ccc(CCCN3CCC(N4CCN(Cc5ccc(-c6cn([C@H]7CC[C@H](O)CC7)c7nc(NCCC(F)(F)F)ncc67)cc5)CC4)CC3)cc21
assay.system: MerTK (Homo sapiens)
Dmax: > 50%

molecule: Cc1ncsc1-c1ccc(CNC(=O)[C@@H]2C[C@@H](O)CN2C(=O)[C@@H](NC(=O)C2(F)CC2)C(C)(C)C)c(OCCCCN2CCN(Cc3ccc(-c4cn([C@H]5CC[C@H](O)CC5)c5nc(NCCC(F)(F)F)ncc45)cc3)CC2)c1
assay.system: MerTK (Homo sapiens)
Dmax: 20 to 50%

molecule: Cn1c(=O)n([C@H]2CCC(=O)NC2=O)c2ccc(CCOCCN3CCC(N4CCN(Cc5ccc(-c6cn([C@H]7CC[C@H](O)CC7)c7nc(NCCC(F)(F)F)ncc67)cc5)CC4)CC3)cc21
assay.system: MerTK (Homo sapiens)
Dmax: > 50%

molecule: Cn1c(=O)n([C@H]2CCC(=O)NC2=O)c2ccc(CCCOCCN3CC(N4CCN(Cc5ccc(-c6cn([C@H]7CC[C@H](O)CC7)c7nc(NCCC(F)(F)F)ncc67)cc5)CC4)C3)cc21
assay.system: MerTK (Homo sapiens)
Dmax: > 50%
